# experimental-details: Selectivity ratio of IC50 for rabbit voltage-dependent L-type calcium channel Cav1.2alpha-1C to IC50 for rat voltage-dependent L-type calcium channel Cav1.3alpha-1D
measured-quantity: Ratio IC50
Simply state the number, no unit and no words.

Entry COC(=O)C1=C(C(C)C)NC(=O)N(C(=O)OC(C)C)C1c1cccc([N+](=O)[O-])c1 (configuration not stated) — recorded Ratio IC50 = 1

Entry CC1=C(C(=O)OC(C)C)C(c2cccc([N+](=O)[O-])c2)N(C(=O)OC(C)C)C(=O)N1 (racemic) — recorded Ratio IC50 = 1

----------
# target-under-test: Voltage-dependent L-type calcium channel subunit alpha-1C (Oryctolagus cuniculus, UniProt P15381)
# Sequence (P15381 whole entry): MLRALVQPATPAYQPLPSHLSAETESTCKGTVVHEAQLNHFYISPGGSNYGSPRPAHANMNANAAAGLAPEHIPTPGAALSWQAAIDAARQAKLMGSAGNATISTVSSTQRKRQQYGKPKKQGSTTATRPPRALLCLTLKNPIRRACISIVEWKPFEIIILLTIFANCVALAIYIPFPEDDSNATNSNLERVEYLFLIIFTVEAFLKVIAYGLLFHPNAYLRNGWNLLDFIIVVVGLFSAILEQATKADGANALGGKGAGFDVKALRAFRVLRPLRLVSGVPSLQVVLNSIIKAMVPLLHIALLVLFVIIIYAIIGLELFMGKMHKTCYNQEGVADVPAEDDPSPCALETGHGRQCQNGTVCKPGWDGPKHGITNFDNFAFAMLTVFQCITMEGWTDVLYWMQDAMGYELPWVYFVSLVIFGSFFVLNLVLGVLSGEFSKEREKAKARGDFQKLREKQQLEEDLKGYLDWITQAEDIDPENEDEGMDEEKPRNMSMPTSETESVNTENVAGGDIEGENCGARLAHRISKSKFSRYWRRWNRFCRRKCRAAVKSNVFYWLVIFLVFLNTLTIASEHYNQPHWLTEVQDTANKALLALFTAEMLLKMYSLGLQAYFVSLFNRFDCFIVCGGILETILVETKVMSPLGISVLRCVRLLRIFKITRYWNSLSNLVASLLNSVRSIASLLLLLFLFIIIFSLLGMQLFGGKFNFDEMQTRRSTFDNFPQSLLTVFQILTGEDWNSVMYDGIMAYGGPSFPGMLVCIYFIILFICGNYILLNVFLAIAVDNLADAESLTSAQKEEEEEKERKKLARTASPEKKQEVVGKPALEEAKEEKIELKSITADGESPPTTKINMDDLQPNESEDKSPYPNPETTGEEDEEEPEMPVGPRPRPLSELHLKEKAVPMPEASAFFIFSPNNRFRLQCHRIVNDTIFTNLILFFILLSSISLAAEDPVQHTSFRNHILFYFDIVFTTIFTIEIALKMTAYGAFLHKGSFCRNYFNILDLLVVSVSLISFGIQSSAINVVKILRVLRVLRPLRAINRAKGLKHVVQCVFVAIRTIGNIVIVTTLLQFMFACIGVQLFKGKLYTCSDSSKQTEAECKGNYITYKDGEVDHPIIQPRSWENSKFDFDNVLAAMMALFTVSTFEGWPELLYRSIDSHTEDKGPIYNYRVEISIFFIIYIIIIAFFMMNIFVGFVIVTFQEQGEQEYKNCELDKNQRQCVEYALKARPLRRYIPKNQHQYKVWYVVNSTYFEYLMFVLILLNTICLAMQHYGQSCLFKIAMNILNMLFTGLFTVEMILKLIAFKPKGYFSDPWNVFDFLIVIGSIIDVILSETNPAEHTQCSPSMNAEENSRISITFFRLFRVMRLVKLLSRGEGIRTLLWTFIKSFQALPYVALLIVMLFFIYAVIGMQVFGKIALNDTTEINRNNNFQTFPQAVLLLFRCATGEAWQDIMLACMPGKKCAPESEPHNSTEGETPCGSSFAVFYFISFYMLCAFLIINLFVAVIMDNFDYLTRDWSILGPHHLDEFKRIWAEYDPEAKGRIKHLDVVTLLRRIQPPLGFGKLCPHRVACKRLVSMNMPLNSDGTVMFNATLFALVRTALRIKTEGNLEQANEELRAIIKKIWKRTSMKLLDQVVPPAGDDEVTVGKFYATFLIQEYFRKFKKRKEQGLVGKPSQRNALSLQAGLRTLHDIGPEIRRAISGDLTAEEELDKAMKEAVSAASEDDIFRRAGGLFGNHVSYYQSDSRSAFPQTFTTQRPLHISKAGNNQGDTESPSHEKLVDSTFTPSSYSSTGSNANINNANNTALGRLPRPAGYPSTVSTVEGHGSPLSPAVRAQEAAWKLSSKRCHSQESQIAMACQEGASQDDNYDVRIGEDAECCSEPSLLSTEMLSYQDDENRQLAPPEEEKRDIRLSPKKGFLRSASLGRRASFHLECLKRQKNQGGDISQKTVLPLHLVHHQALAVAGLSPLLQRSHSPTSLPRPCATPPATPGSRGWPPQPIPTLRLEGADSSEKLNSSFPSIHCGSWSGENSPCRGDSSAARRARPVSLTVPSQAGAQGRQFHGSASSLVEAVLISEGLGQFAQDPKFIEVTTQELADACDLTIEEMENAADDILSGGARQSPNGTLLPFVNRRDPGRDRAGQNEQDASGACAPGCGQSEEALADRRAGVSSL
# experimental-details: Antagonist activity at rabbit voltage-dependent L-type calcium channel Cav1.2alpha-1C expressed in HEK293 cells by FLIPR assay
Parameter: pIC50. Scope: all listed entries.
Convention used: pIC50 is expressed as -log10 of the molar concentration.

| molecule | measured-quantity | reported-value |
| --- | --- | --- |
| CC1=C(C(=O)OC(C)C)[C@H](c2cccc([N+](=O)[O-])c2)N(C(=O)OC(C)C)C(=O)N1 | pIC50 | 5.51 |

Entry CC1=C(C(=O)OC(C)C)C(c2cccc([N+](=O)[O-])c2)C(C(=O)OC(C)C)=C(N)O1 (configuration not stated) — recorded pIC50 = 6.07

Entry CNC1=NC(C)=C(C(=O)OC)C(c2cccc([N+](=O)[O-])c2)N1C(=O)OC(C)C (configuration not stated) — recorded pIC50 = 5.74

Entry COC(=O)C1=C(C)NC(=O)N(C(=O)OC(C)C)C1c1cccc([N+](=O)[O-])c1 (configuration not stated) — recorded pIC50 = 5.61

Entry "COC(=O)N1C(=O)NC(C)=C(C(=O)OC(C)C)[C@H]1c1cccc([N+](=O)[O-])c1" — recorded pIC50 = 5.63

Entry COC(=O)N1C(=O)NC(C)=C(C(=O)OC(C)C)C1c1cccc([N+](=O)[O-])c1 (racemic) — recorded pIC50 = 5.61

Entry COC(=O)C1=C(C)NC(=O)NC1c1cccc([N+](=O)[O-])c1 (configuration not stated) — recorded pIC50 = 4.93

Entry COC(=O)C1=C(C)NC(C)=C(C(=O)OC(C)C)C1c1cccc2nonc12 (configuration not stated) [ISRADIPINE] — recorded pIC50 = 6.97

Entry COC(=O)C1=C(C)NC(=S)N(C(=O)OC(C)C)C1c1cccc([N+](=O)[O-])c1 (configuration not stated) — recorded pIC50 = 6.77

Entry "CC1=C(C(=O)OC(C)C)[C@@H](c2cccc([N+](=O)[O-])c2)N(C(=O)OC(C)C)C(=O)N1" — recorded pIC50 = 5.99

Entry "COC(=O)N1C(=S)NC(C)=C(C(=O)OC(C)C)[C@@H]1c1cccc([N+](=O)[O-])c1" — recorded pIC50 = 5.01

Entry CC(C)OC(=O)C1=C(C(C)C)NC(=O)N(C(=O)OC(C)C)C1c1cccc([N+](=O)[O-])c1 (configuration not stated) — recorded pIC50 = 5.71

Entry CCOC(=O)C1=C(NC(=O)C(C)C)OC(C)=C(C(=O)OC)C1c1cccc([N+](=O)[O-])c1 (configuration not stated) — recorded pIC50 = 5.37

Entry COC(=O)N1C(SC)=NC(C)=C(C(=O)OC(C)C)C1c1cccc([N+](=O)[O-])c1 (configuration not stated) — recorded pIC50 = 5.26

Entry CCOC(=O)C1=C(N)OC(C)=C(C(=O)OC)C1c1cccc([N+](=O)[O-])c1 (configuration not stated) — recorded pIC50 = 6.24

Entry CNC1=NC(C)=C(C(=O)OC(C)C)C(c2cccc([N+](=O)[O-])c2)N1C(=O)OC (configuration not stated) — recorded pIC50 = 5.61
